Values were extracted from patent US20210395761.

- targetUnderTest: SPβc2 serine recombinase (SPβc2-HA-NLS) (Bacillus subtilis phage SPβc2, UniProt O32006 SEQ:1-545)
- Sequence (O32006 whole entry): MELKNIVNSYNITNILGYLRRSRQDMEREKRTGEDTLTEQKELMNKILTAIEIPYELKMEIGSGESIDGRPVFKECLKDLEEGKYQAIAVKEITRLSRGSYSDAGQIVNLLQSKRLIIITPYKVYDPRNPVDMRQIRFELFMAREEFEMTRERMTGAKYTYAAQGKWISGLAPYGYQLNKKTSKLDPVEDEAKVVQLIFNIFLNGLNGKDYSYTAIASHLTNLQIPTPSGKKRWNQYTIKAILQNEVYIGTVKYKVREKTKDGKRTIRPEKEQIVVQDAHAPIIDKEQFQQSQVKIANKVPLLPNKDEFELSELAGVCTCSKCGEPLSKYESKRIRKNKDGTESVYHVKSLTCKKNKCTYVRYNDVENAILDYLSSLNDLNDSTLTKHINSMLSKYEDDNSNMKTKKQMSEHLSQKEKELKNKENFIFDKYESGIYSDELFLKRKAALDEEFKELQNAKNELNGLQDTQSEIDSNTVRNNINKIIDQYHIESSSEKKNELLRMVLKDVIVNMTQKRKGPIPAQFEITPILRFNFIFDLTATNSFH
- testName: cell_activity; partner attP vector
- experimentalConditions: tags: C-terminal HA and SV40 NLS
activity listing for selected binders.
Reply with just the number (in integration events).

Reference set, count: 5
| binder | resultUnits | measurement |
| --- | --- | --- |
| lettuce pseudo-attB 411877132 (dsDNA) DNA 1: ATAAGTTTAGATCTTATTGAACTAGGCTTGTGGTGCTTGTTTAAGGCCATAAATCGCCTTATTCAAGCGACAAAAATGAGACGAATAGGTGGAGTCTTCA DNA 2: TGAAGACTCCACCTATTCGTCTCATTTTTGTCGCTTGAATAAGGCGATTTATGGCCTTAAACAAGCACCACAAGCCTAGTTCAATAAGATCTAAACTTAT | integration events | 2 |
| lettuce pseudo-attB 310607752 (dsDNA) DNA 1: CACAAAAAATTGACCATTTCTAGCAACTTCCTATGATACGTTGATACTTTCTAAACATTAATTACAATGACAAAATGAAGTCTACCAAATCATTCATAGA DNA 2: TCTATGAATGATTTGGTAGACTTCATTTTGTCATTGTAATTAATGTTTAGAAAGTATCAACGTATCATAGGAAGTTGCTAGAAATGGTCAATTTTTTGTG | integration events | 1 |
| lettuce pseudo-attB 207599470 (dsDNA) DNA 1: CAATGGTGAATATAGTCCGGCGACCAACTCTGTCCACTATCAGCAACGATAAAAAGGTCATGCTAAGACCCACAAGCCCAGTCACCACTGCTGACATAAG DNA 2: CTTATGTCAGCAGTGGTGACTGGGCTTGTGGGTCTTAGCATGACCTTTTTATCGTTGCTGATAGTGGACAGAGTTGGTCGCCGGACTATATTCACCATTG | integration events | 7 |
| lettuce pseudo-attB 115327723 (dsDNA) DNA 1: TATTTGTGATGTGACATGACAAATAATGATGTTACAATATTATGTACCTCTAAATGAGATCTAGCATTGAAGATTGCATGAATATTCTTGAGTGTGTTATT DNA 2: AATAACACACTCAAGAATATTCATGCAATCTTCAATGCTAGATCTCATTTAGAGGTACATAATATTGTAACATCATTATTTGTCATGTCACATCACAAATA | integration events | 1 |
| lettuce pseudo-attB 328302882 (dsDNA) DNA 1: TCCGTCACAAATTGCATCACTACGACTAAGATCTTCATCAATGATTCTATTAAGGAGATTCTTACATTGAAGGAGAAGTTACATAAATTCTTTATTATTT DNA 2: AAATAATAAAGAATTTATGTAACTTCTCCTTCAATGTAAGAATCTCCTTAATAGAATCATTGATGAAGATCTTAGTCGTAGTGATGCAATTTGTGACGGA | integration events | 2 |

// next item, activity requested
Query string: Using the record for lettuce pseudo-attB 13364626 (dsDNA) DNA 1: TGAATTTCTTATGAAGGTTACAACGCATCGTGGATTACAAGCAATTCTGTTTAGTCTGTTATGTTGTTGAATTTGAATGGATCTTGTCCTCAGTTACTCA DNA 2: TGAGTAACTGAGGACAAGATCCATTCAAATTCAACAACATAACAGACTAAACAGAATTGCTTGTAATCCACGATGCGTTGTAACCTTCATAAGAAATTCA , state its measured activity.
Result string: 1
